# SYSTEM_UNDER_TEST: plasmepsin II (Plasmodium falciparum)
# Sequence (P46925 125-453): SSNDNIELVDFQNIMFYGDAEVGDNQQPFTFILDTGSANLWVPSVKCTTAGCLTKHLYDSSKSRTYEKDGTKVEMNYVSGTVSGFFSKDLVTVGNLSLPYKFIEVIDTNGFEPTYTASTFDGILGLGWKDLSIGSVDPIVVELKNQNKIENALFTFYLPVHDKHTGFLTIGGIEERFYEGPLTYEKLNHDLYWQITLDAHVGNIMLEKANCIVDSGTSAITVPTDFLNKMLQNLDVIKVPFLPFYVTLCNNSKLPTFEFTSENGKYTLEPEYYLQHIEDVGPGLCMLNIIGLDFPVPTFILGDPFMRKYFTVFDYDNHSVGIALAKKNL
# PROTOCOL: biochemical
# TEST_SETTINGS: Additional Examples table; FRET, pH 5, 37° C., 40 min, substrate 1 μM; read-out: IC50 (nM) on plasmepsin II
ASSAY_ENDPOINT: IC50 (nM)
Answers are plain numbers, in nM.

CCCCCc1ccc(C(=O)N(Cc2ccc(-c3ccccc3)cc2)C2CCN(Cc3ccoc3)CC2)cc1 = 127
CCCCCc1ccc(CN(Cc2ccc(-c3ccccc3F)cc2)C2CCN(Cc3ccccc3)CC2)cc1 = 656
CCCCCc1ccc(C(=O)N(Cc2ccc(OCc3ccccc3)cc2)C2CCN(CCc3ccccc3)CC2)cc1 = 761

Each compound below has a recorded value; state its IC50.
1. CCCCCc1ccc(C(=O)N(Cc2ccc(-c3ccccc3)cc2)C2CCN(Cc3ccc(F)cc3)CC2)cc1
2. CCCCCc1ccc(CN(Cc2ccc(-c3cncnc3)cc2)C2CCN(Cc3ccccc3)CC2)cc1
3. CCCCCc1ccc(C(=O)N(Cc2ccc(-c3ccc(OCCO)cc3)cc2)C2CCN(Cc3ccoc3)CC2)cc1
4. CCCCCc1ccc(C(=O)N(Cc2ccc(OC)cc2)C2CCN(Cc3ccccc3)CC2)cc1
5. CCCCCc1ccc(C(=O)N(Cc2ccc(-c3ccccc3F)cc2)C2CCN(Cc3ccc(O)cc3)CC2)cc1

Reply:
385
618
57
322
152

====

Hi there, I'd appreciate the recorded log10 IC50 for every entry that follows.
# SYSTEM_UNDER_TEST: plasmepsin II (Plasmodium falciparum)
# PROTOCOL: biochemical
# TEST_SETTINGS: Additional Examples table; FRET, pH 5, 37° C., 40 min, substrate 1 μM; read-out: IC50 (nM) on plasmepsin II
In plain terms, each number is the log10 of measured IC50 in nM.

Field: example entries. Status: answers known.
CCCCCc1ccc(C(=O)N(Cc2ccc(-c3ccc(N(C)C)cc3)cc2)C2CCN(Cc3ccccc3)CC2)cc1 = 2.66
CCCCCC(=Cc1ccccc1)CN(C(=O)c1ccc(CCCCC)cc1)C1CCN(Cc2ccccc2)CC1 = 2.97
CCCCCc1ccc(C(=O)N(Cc2ccc(-c3ccc(C#N)cc3)cc2)C2CCN(Cc3ccncc3)CC2)cc1 = 1.45
CCCCCc1ccc(C(=O)N(Cc2ccc(OC(F)(F)F)cc2)C2CCN(Cc3ccccc3)CC2)cc1 = 2.27
C=CCOc1ccc(CN(C(=O)c2ccc(CCCCC)cc2)C2CCN(Cc3ccccc3)CC2)cc1 = 2.43
CCCCCc1ccc(C(=O)N(Cc2ccc(-c3cccnc3)cc2)C2CCN(Cc3cc4ccccc4o3)CC2)cc1 = 2.32
CCCCCc1ccc(C(=O)N(Cc2ccc(C(F)(F)F)c(F)c2)C2CCN(Cc3ccccc3)CC2)cc1 = 2.18
CCCCCc1ccc(C(=O)N(Cc2ccc(-c3cccnc3)cc2)C2CCN(Cc3ccc(O)cc3)CC2)cc1 = 2.02

Query: Tell me reported log10 IC50 for CCCCCc1ccc(C(=O)N(Cc2ccc(-c3cccnc3)cc2)C2CCN(CC3CCCCC3)CC2)cc1 , tested with plasmepsin II (Plasmodium falciparum).
Reply: 1.66

====

# SYSTEM_UNDER_TEST: plasmepsin II (Plasmodium falciparum)
# PROTOCOL: biochemical
# TEST_SETTINGS: Additional Examples table; FRET, pH 5, 37° C., 40 min, substrate 1 μM; read-out: IC50 (nM) on plasmepsin II
For each record, write down the corresponding IC50.

CCCCCc1ccc(C(=O)N(Cc2ccc(-c3ccncc3)cc2)C2CCN(Cc3ccccc3)CC2)cc1 [Example 66] = 104 nM
CCCCCc1ccc(C(=O)N(Cc2ccc(-c3ccc(F)cc3)cc2)C2CCN(Cc3ccccc3)CC2)cc1 [Example 89] = 260 nM
CCCCCc1ccc(C(=O)N(Cc2ccc3c(c2)OCO3)C2CCN(Cc3ccccc3)CC2)cc1 [Example 93] = 284 nM
CCCCCc1ccc(C(=O)N(Cc2ccc(-c3ccc(C#N)cc3)cc2)C2CCN(Cc3cccnc3)CC2)cc1 [Example 55] = 68 nM

For every item in the list below, what is its measured IC50?
1. CCCCCc1ccc(C(=O)N(Cc2ccc(-c3ccc4c(c3)OCO4)cc2)C2CCN(Cc3ccncc3)CC2)cc1 [Example 50]
2. CCCCCc1ccc(C(=O)N(Cc2ccc(OCc3ccccc3)cc2)C2CCCN(Cc3ccccc3)C2)cc1 (racemic) [Example 105]
3. CCCCCc1ccc(C(=O)N(Cc2ccc(-c3ccc(OC)c(OC)c3)cc2)C2CCN(Cc3ccncc3)CC2)cc1 [Example 41]
4. CCCCCc1ccc(C(=O)N(Cc2ccc(-c3ccc(OC)c(OC)c3)cc2)C2CCN(Cc3cccnc3)CC2)cc1 [Example 46]
5. CCCCCCc1ccc(C(=O)N(Cc2ccc(-c3ccccc3)cc2)C2CCN(Cc3ccccc3)CC2)cc1 [Example 97]
6. CCCCCc1ccc(C(=O)N(Cc2ccc(-c3cccnc3)cc2)C2CCN(Cc3ccncc3)CC2)cc1 [Example 64]
7. CCCCCc1ccc(C(=O)N(Cc2ccc(-c3cccnc3)cc2)C2CCN(Cc3ccsc3)CC2)cc1 [Example 45]

Reply:
54 nM
458 nM
25 nM
45 nM
322 nM
102 nM
42 nM
